System: recombinant protein USTB-05-C (MlrC)
Assay: in vitro
Conditions: Sphingopyxis sp. USTB-05, isolated enzyme, pH 7.3
Measured Endpoint: metabolised at 4 h

Exam item: # input molecule: `C/C=C(/C(=O)N[C@@H](C(=O)O)[C@H](C)C(=O)N[C@@H](CCCNC(=N)N)C(=O)O)N(C)C(=O)CC[C@@H](NC(=O)[C@@H](C)[C@@H](N)/C=C/C(C)=C/[C@H](C)[C@H](Cc1ccccc1)OC)C(=O)O` ; wanted: its metabolised at 4 h
Marked response: ~98.7%
